Values from patent US20220289657A1

- targetOrTestSystem: RhlR (Pseudomonas aeruginosa)
- Construct: expressed in transfected cells; host or cells: E. coli sdiA variant co-transformed with pJN105R and pSC11 (RhlA::lacZ)
- method: cell-based
- measurementContext: Table 4; concentration not given
Marks after values point to notes of the source that are not given here.

{"compound": "CCCCCCCCCC(O)CC(=O)CCc1ccc(O)c(OC)c1 (centres unmarked) [Compound 8]", "Relative RhIR activity (%) Antagonism": "36** %"}
{"compound": "CCCCC[C@@H](O)C#Cc1ccc(O)c(OC)c1 [Compound 23b]", "Relative RhIR activity (%) Antagonism": "27** %"}
{"compound": "CCCCCC(=O)C#Cc1ccc(O)c(OC)c1 [Compound 21]", "Relative RhIR activity (%) Antagonism": "29** %"}
{"compound": "CCCCC[C@H](O)C#Cc1ccc(O)c(OC)c1 [Compound 23c]", "Relative RhIR activity (%) Antagonism": "34** %"}
{"compound": "CCCC(O)CC(=O)/C=C/c1ccc(O)cc1 (centres unmarked) [Compound 11d]", "Relative RhIR activity (%) Antagonism": "51** %"}
{"compound": "CCCC(O)CC(=O)/C=C/c1ccc(OC)cc1 (centres unmarked) [Compound 11f]", "Relative RhIR activity (%) Antagonism": "55** %"}
{"compound": "CCCCCCCCC(O)CC(=O)CCc1ccc(O)c(OC)c1 (centres unmarked) [Compound 7]", "Relative RhIR activity (%) Antagonism": "41** %"}
{"compound": "CCCCCC(O)C#Cc1ccc(O)c(OC)c1 (racemic) [Compound 23a]", "Relative RhIR activity (%) Antagonism": "32** %"}

---

- Tested on: Pseudomonas aeruginosa
- method: Static biofilm formation assay (crystal violet)
- Assay type: cell-based
- measurementContext: Pseudomonas aeruginosa, 24 h; Table 3; static; 10 (μM); read-out: Relative biological activity (%) Biofilm formation 10
Listing of entries alongside the reported activity at 10 µM.
readoutName: activity at 10 µM

{"compound": "CCCCCC(=O)C#Cc1ccc(F)c(F)c1", "result": "71%"}
{"compound": "CCCC(=O)NC1CCCC1 [Compound 1d, N-cyclopentylbutyramide, reference compound]", "result": "84%"}
{"compound": "CCCCC(=O)C#Cc1ccc(F)c(F)c1", "result": "75%"}
{"compound": "CCCC(O)C#Cc1ccc(F)c(F)c1 (racemic) [Compound 33a, 1-(3,4-Difluorophenyl)hex-1-yn-3-ol]", "result": "73%"}
{"compound": "CCC[C@H](O)C#Cc1ccc(F)c(F)c1 [Compound 33c, (S)-1-(3,4-Difluorophenyl)hex-1-yn-3-ol]", "result": "79%"}
{"compound": "CCCC(O)CC(=O)/C=C/c1ccc(O)c(OC)c1 (stereo not shown) [Compound 11a]", "result": "82%"}
{"compound": "CCCC(O)CC(=O)/C=C/c1cccc(OC)c1 (stereo not shown) [Compound 11c]", "result": "88%"}

---

- targetOrTestSystem: RhlR (Pseudomonas aeruginosa)
- method: cell-based
- measurementContext: dose-response, FIG. 6A; different concentrations (0 to 100 μM)

{"compound": "CCCC(=O)NC1CCCC1 [Compound 1d, N-cyclopentylbutyramide, reference compound]", "outputUnit": "µM", "IC50": 86}
{"compound": "CCCC(O)CC(=O)CCc1ccc(O)c(OC)c1 (centres unmarked) [Compound 12a]", "outputUnit": "µM", "IC50": 218}

---

- Tested on: Pseudomonas aeruginosa
- method: Static biofilm formation assay (crystal violet)
- Assay type: cell-based
- measurementContext: Pseudomonas aeruginosa, 24 h; Table 3; static; 10 (μM); read-out: Relative biological activity (%) Biofilm formation 10
readoutName: activity at 10 µM

{"compound": "CCCC(O)CC(=O)/C=C/c1ccc(F)c(F)c1 (stereo not shown) [Compound 11o]", "targetOrTestSystem": "Pseudomonas aeruginosa", "result": "72%"}
{"compound": "CCCC(O)CC(=O)/C=C/c1ccc(O)c(O)c1 (stereo not shown) [Compound 11k]", "targetOrTestSystem": "Pseudomonas aeruginosa", "result": "84%"}
{"compound": "CCC[C@@H](O)C#Cc1ccc(F)c(F)c1 [Compound 33b, (R)-1-(3,4-Difluorophenyl)hex-1-yn-3-ol]", "targetOrTestSystem": "Pseudomonas aeruginosa", "result": "74%"}
{"compound": "CCCCCC(=O)/C=C/c1ccc(F)c(F)c1 [Compound 13a, (E)-1-(3,4-Difluorophenyl)oct-1-en-3-one]", "targetOrTestSystem": "Pseudomonas aeruginosa", "result": "80%"}

---

- targetOrTestSystem: RhlR (Pseudomonas aeruginosa, UniProt P54292)
- Construct: expressed in transfected cells; host or cells: E. coli sdiA variant co-transformed with pJN105R and pSC11 (RhlA::lacZ)
- Sequence (P54292 whole entry): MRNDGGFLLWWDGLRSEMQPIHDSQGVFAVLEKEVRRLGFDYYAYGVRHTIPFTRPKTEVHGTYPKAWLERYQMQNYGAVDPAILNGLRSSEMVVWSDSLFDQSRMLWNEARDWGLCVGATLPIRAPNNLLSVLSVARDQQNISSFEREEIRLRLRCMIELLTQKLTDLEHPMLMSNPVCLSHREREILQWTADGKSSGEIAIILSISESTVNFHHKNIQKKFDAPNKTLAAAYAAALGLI
- method: cell-based
- measurementContext: read-out: Relative RhIR Activity (%) Antagonism 10, Table 3; 10 (μM)
Listing of entries alongside the reported remaining activity at 10 µM.

{"compound": "CCCC(=O)NC1CCCC1 [Compound 1d, N-cyclopentylbutyramide, reference compound]", "remaining activity at 10 µM [%]": 74}
{"compound": "CCC[C@@H](O)C#Cc1ccc(F)c(F)c1 [Compound 33b, (R)-1-(3,4-Difluorophenyl)hex-1-yn-3-ol]", "remaining activity at 10 µM [%]": 45}
{"compound": "CCCC(O)CC(=O)/C=C/c1cccc(OC)c1 (centres unmarked) [Compound 11c]", "remaining activity at 10 µM [%]": 89}
{"compound": "CCCC(O)C#Cc1ccc(F)c(F)c1 (racemic) [Compound 33a, 1-(3,4-Difluorophenyl)hex-1-yn-3-ol]", "remaining activity at 10 µM [%]": 45}
{"compound": "CCCC(O)CC(=O)/C=C/c1ccc(O)c(OC)c1 (centres unmarked) [Compound 11a]", "remaining activity at 10 µM [%]": 73}
{"compound": "CCCC(O)CC(=O)/C=C/c1ccc(O)c(O)c1 (centres unmarked) [Compound 11k]", "remaining activity at 10 µM [%]": 60}
{"compound": "CCCC(O)CC(=O)/C=C/c1ccc(F)c(F)c1 (centres unmarked) [Compound 11o]", "remaining activity at 10 µM [%]": 60}
{"compound": "CCCCC(=O)C#Cc1ccc(F)c(F)c1", "remaining activity at 10 µM [%]": 29}

---

- targetOrTestSystem: RhlR (Pseudomonas aeruginosa)
- Construct: expressed in transfected cells; host or cells: E. coli sdiA variant co-transformed with pJN105R and pSC11 (RhlA::lacZ)
- method: cell-based
- measurementContext: read-out: Relative RhIR Activity (%) Antagonism 100, Table 3; 100 (μM)
Listing of entries alongside the reported remaining activity at 100 µM.

{"compound": "CCCCCC(=O)C#Cc1ccc(F)c(F)c1", "remaining activity at 100 µM, %": 17}
{"compound": "CCC[C@@H](O)C#Cc1ccc(F)c(F)c1 [Compound 33b, (R)-1-(3,4-Difluorophenyl)hex-1-yn-3-ol]", "remaining activity at 100 µM, %": 25}
{"compound": "CCCC(O)CC(=O)/C=C/c1ccc(F)c(F)c1 (centres unmarked) [Compound 11o]", "remaining activity at 100 µM, %": 20}
{"compound": "CCCC(=O)NC1CCCC1 [Compound 1d, N-cyclopentylbutyramide, reference compound]", "remaining activity at 100 µM, %": 54}
{"compound": "CCCCCC(=O)/C=C/c1ccc(F)c(F)c1 [Compound 13a, (E)-1-(3,4-Difluorophenyl)oct-1-en-3-one]", "remaining activity at 100 µM, %": 51}
{"compound": "CCCC(O)CC(=O)/C=C/c1ccc(O)c(O)c1 (centres unmarked) [Compound 11k]", "remaining activity at 100 µM, %": 43}
{"compound": "CCCC(O)C#Cc1ccc(F)c(F)c1 (racemic) [Compound 33a, 1-(3,4-Difluorophenyl)hex-1-yn-3-ol]", "remaining activity at 100 µM, %": 32}
{"compound": "CCCC(O)CC(=O)/C=C/c1cccc(OC)c1 (centres unmarked) [Compound 11c]", "remaining activity at 100 µM, %": 94}
